assayNotes: amyloid nucleation score (Sup35N fusion, yeast selection) (log enrichment); library NNK3; higher = more nucleation; inactive = no reads after selection;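 also: zero at mode of non-aggregating sequences after 7 days selection at 30°C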
valueKind: amyloid nucleation score

Worked cases, answers included:
Q: Endpoint output: amyloid nucleation score of WSFRVKTNRDDTEMLLSRSE . Value?
Ans: inactive

Q: Entry KYLAFLQLCGAPMYLWTPPI has what amyloid nucleation score?
Ans: 0.757

Q: Bench note: what amyloid nucleation score did VCCSYY show?
Ans: 1.32

Q: Would you kindly share the measured amyloid nucleation score for GFVNSVRFDLIECDVLKRSN ?
Ans: inactive

Q: Quick check: amyloid nucleation score of EVRLLGYLVTRNDM ?
Ans: inactive

Further cases:
Q: What amyloid nucleation score value was documented for this substance, YGFCSC ?
Ans: -0.033

Q: amyloid nucleation score lookup needed for SIMREMWWSDTLFGGMNRFW , thanks.
Ans: 0.992

Q: Looking for the measured amyloid nucleation score of HYTVDANNIVFYILH , can you help?
Ans: 3.11
